Biological target: T1, human ROR2 expressed on the cell surface (human, UniProt Q01974 34-943)
T1 construct: Endogenous ROR2 of human tumour cell lines; also called cell surface ROR2; ROR2 on tumour cell lines
T1 sequence (Q01974 34-943 limits assumed): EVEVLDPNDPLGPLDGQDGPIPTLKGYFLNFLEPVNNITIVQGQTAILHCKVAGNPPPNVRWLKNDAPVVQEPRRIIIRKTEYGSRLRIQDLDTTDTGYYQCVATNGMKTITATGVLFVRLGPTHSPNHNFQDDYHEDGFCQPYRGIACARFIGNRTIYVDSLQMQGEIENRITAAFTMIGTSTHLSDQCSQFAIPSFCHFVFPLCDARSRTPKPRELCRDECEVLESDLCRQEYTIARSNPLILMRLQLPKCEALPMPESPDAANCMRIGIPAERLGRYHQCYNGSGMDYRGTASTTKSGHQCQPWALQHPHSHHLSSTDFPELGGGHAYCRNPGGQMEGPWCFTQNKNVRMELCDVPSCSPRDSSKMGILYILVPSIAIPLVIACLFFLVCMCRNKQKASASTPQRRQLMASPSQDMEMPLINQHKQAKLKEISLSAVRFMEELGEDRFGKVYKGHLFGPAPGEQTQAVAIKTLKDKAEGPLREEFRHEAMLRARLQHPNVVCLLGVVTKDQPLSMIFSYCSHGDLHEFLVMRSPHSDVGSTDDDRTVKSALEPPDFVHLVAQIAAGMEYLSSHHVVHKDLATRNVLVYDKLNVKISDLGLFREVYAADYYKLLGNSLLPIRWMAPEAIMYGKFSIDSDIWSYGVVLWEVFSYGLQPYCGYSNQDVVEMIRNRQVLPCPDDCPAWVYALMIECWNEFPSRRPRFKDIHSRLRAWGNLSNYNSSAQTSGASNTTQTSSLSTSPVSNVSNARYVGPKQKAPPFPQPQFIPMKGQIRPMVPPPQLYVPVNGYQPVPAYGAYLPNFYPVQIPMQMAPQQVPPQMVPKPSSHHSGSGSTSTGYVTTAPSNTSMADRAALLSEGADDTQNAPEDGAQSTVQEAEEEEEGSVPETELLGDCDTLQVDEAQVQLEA
Assay: flow cytometry, AU565 cells (breast CA)
Design: unit not given here
Method: Human tumour cell lines were authenticated using short tandem repeat (STR) analysis. They were cultured in RPMI1640 (Cellgro) supplemented with 10% fetal bovine serum (FBS, Life Technologies) at 37° C. in a 5% CO₂ humidified incubator. They were harvested, washed in PBS and reacted with ROR2-IgG at 1 ug/10⁶ tumour cells on ice for an hour. #901-IgG was used as a negative control at the same dose. […] Staining was analyzed on a FACSCalibur (BD Biosciences). […]

| binder | binding intensity |
| --- | --- |
| ROR2-23 full length human IgG1 antibody (antibody, V domains shown, The light chain of clone 023 is labelled kappa; also called clone #23; clone #023 IgG1) VH: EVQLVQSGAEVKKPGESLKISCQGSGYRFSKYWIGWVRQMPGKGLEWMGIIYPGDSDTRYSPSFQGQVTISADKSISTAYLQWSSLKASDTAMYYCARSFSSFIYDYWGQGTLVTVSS VL: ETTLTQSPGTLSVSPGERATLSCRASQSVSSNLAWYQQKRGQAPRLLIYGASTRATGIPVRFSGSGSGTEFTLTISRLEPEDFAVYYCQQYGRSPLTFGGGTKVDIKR | 102 |
